The reported measurements were obtained from ChEMBL document CHEMBL4689842.

# System: HEK-293T
# Assay Text: Multiplex assay against HEK293T;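 note: share of the cells with healthy nuclei that show this phenotype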
# Assay type: toxicity, cell-based
# Measurement Context: human, 12 h, 10 µM, compound concentration 10 uM, replicate 1
Listed here are molecules together with their documented Population Tubulin-Different-Phenotype (%).
Dear colleague, please return just the value in %, with no unit written.

Query: Population Tubulin-Different-Phenotype (%) of Cc1ccc2c(c1)c1c(n2CCc2ccc(C)nc2)CCN(C)C1 [LATREPIRDINE] on HEK-293T?
Reply: 91

Query: What value of Population Tubulin-Different-Phenotype (%) on HEK-293T does C=CC(=O)Nc1cccc(Sc2nc(Nc3ccc(N4CCN(C)CC4)cc3)ncc2Cl)c1 have?
Reply: 14

Query: Lab note: need Population Tubulin-Different-Phenotype (%) with HEK-293T for entry CC(C)CC(=O)Nc1[nH]nc2c1CN(C(=O)C1CCN(C)CC1)C2(C)C , please look it up.
Reply: 3

More entries:
Query: Enter reported Population Tubulin-Different-Phenotype (%) observed with HEK-293T for O=C(c1cc2c(cc1F)OC(c1ccc(F)cc1)(c1ccc(Cl)cc1Cl)O2)N1CCOCC1 (stereo unspecified)
Reply: 97

Query: Give recorded Population Tubulin-Different-Phenotype (%) with HEK-293T for the following molecule: O=c1cc(N2CCOCC2)oc2c(-c3cccc4c3sc3ccccc34)cccc12
Reply: 91

Query: Quick check: Population Tubulin-Different-Phenotype (%) on HEK-293T, item C=CC(=O)Nc1cccc(Oc2nc(Nc3ccc(N4CCN(C)CC4)cc3OC)ncc2Cl)c1 ?
Reply: 18
